MEASUREMENT PROTOCOL: PAMPA (parallel artificial membrane permeability assay)
Format: in vitro ADME
MEASUREMENT PARAMETERS: PAMPA, pH 6.5
Starred links: 1 amine or outer side, 2 acyl side, 3 side chain; linkers in the order of their positions; H or OH if unused. Positions of bridges follow the written chain, without caps; N, C: chain ends. Non-standard residues stand in square brackets, D forms with d. Residues, ends and D or L forms follow the SMILES beside them. *: point of attachment. Phe(3-(CH2)4CO) = O=C([C@H](Cc1cccc(CCCCC(=O)[*:3])c1)N[*:1])[*:2]; NEtPhe = CCN[C@@H](Cc1ccccc1)C(=O)O; NMeF = CN[C@@H](Cc1ccccc1)C(=O)O; NMeI = CC[C@H](C)[C@H](NC)C(=O)O; NMeβAla = CN(CCC(=O)[*:2])[*:1]; NMeL = CN[C@@H](CC(C)C)C(=O)O; NMeV = CN[C@H](C(=O)O)C(C)C; NMeA = CN[C@@H](C)C(=O)O; Piperidide = C1CCN(*)CC1; dNMeA = CN[C@H](C)C(=O)O; β3hA = C[C@H](N)CC(=O)O; Sar = CNCC(=O)O; tBu = CC(C)(C)*
Below, each entry is listed with its recorded Papp at 18 hours, 50 µM.
Output spec: scalar in ×10⁻⁶ cm/s, unitless text.

Solved cases (8 shown):
COMPOUND	Papp at 18 hours, 50 µM [×10⁻⁶ cm/s]
CC[C@H](C)[C@@H]1NC(=O)[C@H](Cc2ccccc2)N(C)C(=O)[C@H]([C@@H](C)O)NC(=O)[C@@H](C)NC(=O)C[C@@H](C(=O)N(C)[C@@H](Cc2ccccc2)C(=O)N(C)[C@@H](Cc2ccccc2)C(=O)N[C@@H](C)C(=O)N2CCCCC2)NC(=O)[C@H](CC(C)C)N(C)C(=O)[C@H](CC(C)C)N(C)C(=O)[C@H](Cc2ccccc2)N(C)C(=O)[C@H](CC(C)C)N(C)C(=O)[C@H](C)N(C)C1=O [DP-289] ([dA]T[NMeF]I[NMeA][NMeL][NMeF][NMeL][NMeL]D[NMeF][NMeF]A-Piperidide; lactam N-10)	0.14
CC(C)C[C@H]1C(=O)N(C)[C@@H](CC(C)C)C(=O)N[C@H](C(=O)N(C)[C@@H](Cc2ccccc2)C(=O)N[C@@H](C)C(=O)N2CCCCC2)CC(=O)N(C)[C@@H](C)C(=O)N[C@@H](C(C)C)C(=O)N(C)[C@@H](Cc2ccccc2)C(=O)N(C)CC(=O)N[C@@H]([C@@H](C)O)C(=O)N(C)[C@@H](C)C(=O)N1C [DP-310] ([NMeA]V[NMeF][Sar]T[NMeA][NMeL][NMeL]D[NMeF]A-Piperidide; lactam N-9)	35
CC[C@H](C)[C@@H]1NC(=O)[C@H](Cc2ccccc2)N(C)C(=O)[C@H](CC(C)C)N(C)C(=O)[C@H](Cc2ccccc2)N(C)C(=O)[C@H]([C@@H](C)O)NC(=O)CCN(C)C(=O)C[C@@H](C(=O)N(C)[C@@H](Cc2ccccc2)C(=O)N[C@@H](C)C(=O)N2CCCCC2)NC(=O)[C@H](CC(C)C)N(C)C(=O)[C@H](C)N(C)C(=O)[C@H](CC(C)C)N(C)C1=O [DP-299] ([NMeβAla]T[NMeF][NMeL][NMeF]I[NMeL][NMeA][NMeL]D[NMeF]A-Piperidide; lactam N-10)	5.3
CC[C@H](C)[C@H]1C(=O)N[C@H](C(=O)N2CCCCC2)CC(=O)N(C)[C@H](C)C(=O)N(C)[C@@H](Cc2ccccc2)C(=O)N(C)[C@@H](CC(C)C)C(=O)N[C@@H]([C@@H](C)O)C(=O)N(C)CC(=O)N[C@@H](COC(C)(C)C)C(=O)N(C)[C@@H](CC(C)C)C(=O)N1C [DP-81] ([dNMeA][NMeF][NMeL]T[Sar]S(tBu)[NMeL][NMeI]D-Piperidide; lactam N-9)	25
CC[C@H](C)[C@H](NC(=O)[C@H](CC(C)C)NC(=O)[C@H](Cc1ccccc1)NC(=O)[C@@H]1CC(=O)N[C@@H](C)C(=O)N[C@@H]([C@@H](C)CC)C(=O)N(C)[C@@H](C)C(=O)N(C)[C@@H](Cc2ccccc2)C(=O)N[C@@H]([C@@H](C)O)C(=O)N(C)[C@@H](Cc2ccccc2)C(=O)N[C@@H](CC(C)C)C(=O)N2CCC[C@H]2C(=O)N1)C(=O)N[C@@H](C)C(=O)N1CCCCC1 [DP-666] (AI[NMeA][NMeF]T[NMeF]LPDFLIA-Piperidide; lactam N-9)	3
CC[C@H](C)[C@@H]1NC(=O)[C@H](CC(C)C)N(C)C(=O)[C@H](C)N(C)C(=O)[C@H]([C@@H](C)O)NC(=O)[C@H](CC(C)C)N(C)C(=O)[C@H](Cc2ccccc2)N(C)C(=O)[C@@H](C(C)C)NC(=O)C[C@@H](C(=O)N(C)[C@@H](Cc2ccccc2)C(=O)N[C@@H](C)C(=O)N2CCCCC2)NC(=O)[C@H](C(C)C)N(C)C1=O [DP-308] ([dV][NMeF][NMeL]T[NMeA][NMeL]I[NMeV]D[NMeF]A-Piperidide; lactam N-9)	27
CC[C@H](C)[C@@H]1NC(=O)[C@H](CC(C)C)N(C)C(=O)[C@H](Cc2ccccc2)N(C)C(=O)[C@@H](C(C)C)NC(=O)C[C@H](C)NC(=O)[C@H](CC(C)C)N(C)C(=O)[C@H](C)N(C)C(=O)[C@H]([C@@H](C)O)NC(=O)[C@H](Cc2ccccc2)N(C)C(=O)[C@H](C)N(C)C1=O [DP-780] (cyclo(I[NMeA][NMeF]T[NMeA][NMeL][β3hA][dV][NMeF][NMeL]))	41
CCN1C(=O)CCCCc2cccc(c2)C[C@@H](C(=O)N2CCCCC2)NC(=O)[C@H](CC(C)C)N(C)C(=O)CN(C)C(=O)[C@H]([C@@H](C)O)NC(=O)[C@H](CC(C)C)N(C)C(=O)[C@H](Cc2ccccc2)N(C)C(=O)[C@H](C)NC(=O)[C@@H]1Cc1ccccc1 [DP-863] ([NEtPhe]A[NMeF][NMeL]T[Sar][NMeL][Phe(3-(CH2)4CO)]-Piperidide; lactam N-8)	35

For the next question, use this compound.
Req: Entry CC[C@H](C)[C@H]1C(=O)N[C@H](C(=O)N(C)[C@@H](Cc2ccccc2)C(=O)N[C@@H](C)C(=O)N2CCCCC2)CC(=O)N[C@@H](C)C(=O)N(C)[C@@H](Cc2ccccc2)C(=O)N(C)[C@@H](CC(C)C)C(=O)N[C@@H]([C@@H](C)O)C(=O)N(C)[C@@H](C)C(=O)N[C@@H](C(C)C)C(=O)N(C)[C@@H](CC(C)C)C(=O)N1C [DP-305] (A[NMeF][NMeL]T[NMeA]V[NMeL][NMeI]D[NMeF]A-Piperidide; lactam N-9) has what Papp at 18 hours, 50 µM?
Resp: 35

----------
MEASUREMENT PROTOCOL: Metabolic stability in human hepatic microsome
Format: in vitro ADME
MEASUREMENT PARAMETERS: microsomes, pH 7.4; human hepatic microsome, NADPH(+); read-out: CL NADPH(+)
Positions of bridges follow the written chain, without caps; N, C: chain ends. Non-standard residues stand in square brackets, D forms with d. Residues, ends and D or L forms follow the SMILES beside them. *: point of attachment. NMeF = CN[C@@H](Cc1ccccc1)C(=O)O; NMeL = CN[C@@H](CC(C)C)C(=O)O; NMeV = CN[C@H](C(=O)O)C(C)C; NMeA = CN[C@@H](C)C(=O)O; Piperidide = C1CCN(*)CC1; dNMeA = CN[C@H](C)C(=O)O; β3hA = C[C@H](N)CC(=O)O; Sar = CNCC(=O)O
ENDPOINT NAME: microsomal CLint at 1 uM (µL/min/mg)
Output spec: scalar in µL/min/mg, unitless text.

Solved cases (2 shown):
MOLECULE	microsomal CLint at 1 uM / µL/min/mg
CC[C@H](C)[C@@H]1NC(=O)[C@H](Cc2ccccc2)NC(=O)[C@@H](C)N(C)C(=O)C[C@@H](C(=O)N2CCCCC2)NC(=O)[C@H](CC(C)C)NC(=O)[C@H](Cc2ccccc2)N(C)C(=O)[C@H](Cc2ccccc2)NC(=O)[C@H](CC(C)C)NC(=O)[C@H]([C@@H](C)O)NC(=O)[C@H](CC(C)C)NC1=O [DP-119] ([dNMeA]FILTLF[NMeF]LD-Piperidide; lactam N-10)	67
CC[C@H](C)[C@@H]1NC(=O)[C@H](C(C)C)N(C)C(=O)[C@H](C)N(C)C(=O)[C@H]([C@@H](C)O)NC(=O)[C@@H](C)N(C)C(=O)C[C@@H](C(=O)N2CCCCC2)NC(=O)[C@H](C)NC(=O)[C@H](Cc2ccccc2)N(C)C(=O)CN(C)C(=O)[C@H](CC(C)C)N(C)C1=O [DP-485] ([dNMeA]T[NMeA][NMeV]I[NMeL][Sar][NMeF]AD-Piperidide; lactam N-10)	45

For the next question, use this molecule.
Req: Entry CC(C)C[C@H]1C(=O)N(C)[C@@H](Cc2ccccc2)C(=O)N[C@@H](C)CC(=O)N[C@H](C(C)C)C(=O)N[C@@H](C)C(=O)N[C@@H]([C@@H](C)O)C(=O)N(C)[C@@H](C)C(=O)N[C@@H](Cc2ccccc2)C(=O)N1C [DP-796] (cyclo(AT[NMeA]F[NMeL][NMeF][β3hA][dV])) has what microsomal CLint at 1 uM?
Resp: 66
